Data origin: ChEMBL document CHEMBL3039007

# testedSystem: Solute carrier organic anion transporter family member 1B3 (Homo sapiens, UniProt Q9NPD5)
# Sequence (Q9NPD5 whole entry): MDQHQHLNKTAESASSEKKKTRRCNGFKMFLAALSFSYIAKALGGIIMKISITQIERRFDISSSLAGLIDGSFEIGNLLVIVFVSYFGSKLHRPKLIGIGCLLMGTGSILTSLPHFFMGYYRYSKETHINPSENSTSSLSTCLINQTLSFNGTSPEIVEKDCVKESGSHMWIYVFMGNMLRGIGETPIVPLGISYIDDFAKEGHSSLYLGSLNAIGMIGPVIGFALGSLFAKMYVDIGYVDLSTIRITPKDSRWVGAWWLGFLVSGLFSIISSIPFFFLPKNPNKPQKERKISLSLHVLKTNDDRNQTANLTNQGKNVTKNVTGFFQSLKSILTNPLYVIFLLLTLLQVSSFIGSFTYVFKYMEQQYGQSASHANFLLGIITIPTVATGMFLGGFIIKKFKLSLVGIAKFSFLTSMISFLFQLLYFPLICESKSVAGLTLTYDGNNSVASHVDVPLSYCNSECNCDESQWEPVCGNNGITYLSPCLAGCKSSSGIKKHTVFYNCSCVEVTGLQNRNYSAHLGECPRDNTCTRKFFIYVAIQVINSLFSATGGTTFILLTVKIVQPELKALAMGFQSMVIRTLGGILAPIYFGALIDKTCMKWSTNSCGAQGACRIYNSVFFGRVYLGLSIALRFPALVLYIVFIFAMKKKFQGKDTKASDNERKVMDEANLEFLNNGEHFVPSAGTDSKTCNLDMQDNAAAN
# statedConditions: chinese hamster, cho, 10 µM

{"columns": ["molecule", "residual activity (%)"],
 "data": [
  ["Nc1nc2ncc(C(=O)O)nc2c(=O)[nH]1", 99.97],
  ["O=C(CCCN1CCC2(CC1)C(=O)NCN2c1ccccc1)c1ccc(F)cc1", 108.9],
  ["CO/N=C(\\C(=O)N[C@@H]1C(=O)N2C(C(=O)[O-])=C(COC(N)=O)CS[C@H]12)c1ccco1.[Na+] [CEFUROXIME SODIUM]", 83.34],
  ["CN1CC(=O)NC1=N", 93.64],
  ["O=C1c2ccccc2C(=O)c2c(O)c(O)cc(O)c21", 98.68],
  ["CCCN(CCC)c1c([N+](=O)[O-])cc(C(F)(F)F)cc1[N+](=O)[O-]", 102.7],
  ["COc1ccc(C(=O)O[C@@H]2CC[C@@]3(C)[C@@H]4CC[C@H]5[C@]6(O)C[C@H](O)[C@@]7(O)[C@@H](CN8C[C@@H](C)CC[C@H]8[C@@]7(C)O)[C@]6(O)C[C@@]53O[C@@]42O)cc1OC.O=S(=O)(O)O", 91.85],
  ["CC(C)CCC[C@@H](C)[C@H]1CC[C@H]2[C@@H]3C[C@@H](O)[C@@]4(O)C[C@@H](O)CC[C@]4(C)[C@H]3CC[C@]12C", 93.54],
  ["COC(=O)C1=C(C)NC(C)=C(C(=O)OCCN(C)Cc2ccccc2)C1c1cccc([N+](=O)[O-])c1.Cl (stereo not given) [NICARDIPINE HYDROCHLORIDE]", 67.41],
  ["COc1c2occc2c(OC)c2c(=O)cc(C)oc12", 102.2]
]}

----------
# testedSystem: UniProt Q9NPD5
# statedConditions: chinese hamster, cho, 10 µM
attributeMeasured: residual activity (%)

{"columns": ["compound", "readoutNumber"],
 "data": [
  ["Cl.N[C@@H]1C[C@H]1c1ccccc1 [TRANYLCYPROMINE HYDROCHLORIDE]", 89.57],
  ["Cc1ccc2c(Cl)cc(Cl)c(O)c2n1", 88.49],
  ["CC(N/C(=N\\C#N)Nc1ccncc1)C(C)(C)C (centres undefined) [PINACIDIL ANHYDROUS]", 90.66],
  ["CCOC(=O)C1C(C=C(C)C)C1(C)C (centres undefined)", 89.36]
]}

----------
# residual activity annotations
# testedSystem: Solute carrier organic anion transporter family member 1B1 (Homo sapiens)
# statedConditions: chinese hamster, cho, 10 µM
attributeMeasured: residual activity (%)

{"columns": ["molecule", "readoutNumber"],
 "data": [
  ["CC(=O)c1cc2c(cc1O)OC(C)(C)C=C2", 84.54],
  ["c1ccc2c(c1)cc1ccc3cccc4ccc2c1c34", 74.44],
  ["C=C[C@H]1CN2CC[C@H]1C[C@H]2[C@H](OC(=O)OCC)c1ccnc2ccc(OC)cc12 [QUININE ETHYLCARBONATE]", 58.74],
  ["CCCCC[C@H](CC(=O)O)C(=O)O", 128.4]
]}

----------
# testedSystem: Solute carrier organic anion transporter family member 1B1 (Homo sapiens, UniProt Q9Y6L6)
# Sequence (Q9Y6L6 whole entry): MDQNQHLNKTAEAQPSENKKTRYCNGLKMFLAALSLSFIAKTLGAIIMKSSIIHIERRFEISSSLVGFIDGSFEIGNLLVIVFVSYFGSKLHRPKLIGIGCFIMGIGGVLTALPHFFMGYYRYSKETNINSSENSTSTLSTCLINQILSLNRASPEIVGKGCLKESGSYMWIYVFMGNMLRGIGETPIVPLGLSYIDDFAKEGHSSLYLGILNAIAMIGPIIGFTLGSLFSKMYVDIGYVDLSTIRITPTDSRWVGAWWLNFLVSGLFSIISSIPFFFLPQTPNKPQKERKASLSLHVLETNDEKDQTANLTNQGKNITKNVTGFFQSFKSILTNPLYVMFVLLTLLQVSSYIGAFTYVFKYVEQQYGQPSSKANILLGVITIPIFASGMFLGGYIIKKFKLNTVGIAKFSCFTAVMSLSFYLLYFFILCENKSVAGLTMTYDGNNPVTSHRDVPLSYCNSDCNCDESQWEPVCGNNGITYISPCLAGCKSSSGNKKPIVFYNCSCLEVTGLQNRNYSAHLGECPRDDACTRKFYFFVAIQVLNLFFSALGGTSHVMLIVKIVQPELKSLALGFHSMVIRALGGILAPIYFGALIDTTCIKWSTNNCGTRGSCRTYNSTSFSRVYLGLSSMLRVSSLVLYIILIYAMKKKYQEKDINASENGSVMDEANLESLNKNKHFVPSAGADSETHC
# statedConditions: chinese hamster, cho, 10 µM
attributeMeasured: residual activity

{"columns": ["molecule", "result"],
 "data": [
  ["C[C@]12CCC(=O)C=C1CCc1ccc(O)cc12", "47.54%"],
  ["COc1cccc(-c2cc(=O)c3cc(OC)ccc3o2)c1 [6,3'-DIMETHOXYFLAVONE]", "131.7%"],
  ["O=C(O)c1cc(O)ccc1O [GENTISIC ACID]", "84.57%"],
  ["NCCc1c[nH]c2ccccc12 [TRYPTAMINE]", "101%"],
  ["CCCC1O[C@@H]2C[C@H]3[C@@H]4CCC5=CC(=O)C=C[C@]5(C)[C@H]4[C@@H](O)C[C@]3(C)[C@]2(C(=O)CO)O1 (stereo not given in full) [BUDESONIDE]", "43.76%"],
  ["COc1cc(OC)c(OC)cc1C=O", "48.71%"],
  ["COc1c2ccoc2cc2oc(=O)ccc12 [BERGAPTEN]", "93.84%"],
  ["Nc1nccs1 [AMINOTHIAZOLE]", "92.13%"],
  ["CC1(C)[C@H](O)C[C@H](O)[C@]2(C)[C@H]3CC[C@@]4(C)[C@H](c5ccoc5)OC(=O)[C@H]5O[C@]54[C@]3(C)C(=O)C[C@@H]12", "48.25%"],
  ["COc1c(-c2ccccc2)oc2c(ccc3occc32)c1=O [KARANJIN]", "50.39%"],
  ["C=C(C)/C=C1/C=CC(=O)C(C)=C1 [RETUSOQUINONE]", "96.97%"],
  ["O=[N+]([O-])c1cc([As](=O)(O)O)ccc1O [ROXARSONE]", "82.84%"],
  ["Cl.NCCCCC(=O)O [5-AMINOPENTANOIC ACID HYDROCHLORIDE]", "59.53%"],
  ["COc1ccc2cc1Oc1ccc(cc1)C[C@H]1c3c(cc4c(c3Oc3cc5c(cc3OC)CCN(C)[C@@H]5C2)OCO4)CCN1C [CEPHARANTHINE]", "91.94%"],
  ["COc1c(C(C)C)oc2cc3oc(=O)ccc3cc12 [PEUCEDANIN]", "101.3%"],
  ["CCCCCC(=O)Cc1cc(O)cc(O)c1C(=O)Oc1cc(CC(=O)CCCCC)c(C(=O)O)c(OC)c1 [ARTHONIOIC ACID]", "52.3%"],
  ["COc1ccc(CC2c3cc(OC)c(OC)cc3CCN2C)cc1OC (stereo not given) [LAUDANOSINE]", "107.4%"],
  ["C[C@]12CC[C@@H]3c4ccc(O)cc4CC[C@H]3[C@@H]1CC[C@@H]2OC(=O)CCC1CCCC1 [ESTRADIOL CYPIONATE]", "81.59%"],
  ["CC(=O)[C@@]1(O)CC[C@H]2[C@@H]3C=C(Cl)C4=CC(=O)[C@@H]5C[C@@H]5[C@]4(C)[C@H]3CC[C@@]21C [CYPROTERONE]", "30.6%"],
  ["COC(=O)[C@]1(C)CC[C@]2(C)CC[C@]3(C)C4=CCc5c(cc(OC(C)=O)c(OC(C)=O)c5C)[C@]4(C)CC[C@@]3(C)[C@@H]2C1 [PRISTIMEROL DIACETATE]", "94.14%"],
  ["C=CCc1ccc(O)c(OC)c1 [EUGENOL]", "106%"],
  ["Nc1ccc(S(=O)(=O)Nc2ccc(Cl)nn2)cc1 [SULFACHLORPYRIDAZINE]", "134.9%"],
  ["C=C(C)C1(O)OC(=O)C=C1OC (stereo not given) [PENICILLIC ACID]", "110.4%"],
  ["O=C1c2ccccc2C(=O)C1c1ccccc1 [PHENINDIONE]", "89.42%"],
  ["CC(=O)[C@H]1CC[C@H]2[C@@H]3CCC4=CC(=O)CC[C@]4(C)[C@H]3CC[C@]12C [PROGESTERONE]", "52.43%"],
  ["COc1ccc(-c2cc(=O)c3c(O)cc(O)c(-c4cc(-c5cc(=O)c6c(O)cc(O)cc6o5)ccc4OC)c3o2)cc1 [ISOGINKGETIN]", "36.16%"],
  ["COc1cc(O)c(C(=O)c2ccccc2)cc1O [CEAROIN]", "91.48%"],
  ["CC(C)NCC(O)c1ccc2ccccc2c1.Cl (stereo not given)", "83.88%"],
  ["CCCCC(=O)Oc1ccccc1C(=O)O [VALERYL SALYCILATE]", "78.97%"],
  ["CC(=O)NC1CCSC1=O (stereo not given) [CITIOLONE]", "110.6%"]
]}

----------
# testedSystem: Solute carrier organic anion transporter family member 1B3 (Homo sapiens)
# statedConditions: chinese hamster, cho, 10 µM
residual activity strictly under 90% means rule met; at 90% or over means rule not met.

{"columns": ["compound", "testedSystem", "class"],
 "data": [
  ["COC(=O)CCC(=O)O[C@H]1CC[C@@]2(C)[C@@H](CC[C@@H]3[C@@H]2C(=O)[C@@H](O)[C@]2(C)C4C(C[C@@H]32)O[C@@]2(CCC(C)CO2)[C@H]4C)C1 (stereo partly drawn)", "Solute carrier organic anion transporter family member 1B3 (Homo sapiens)", "rule met"],
  ["CC(=O)O[C@]1(C(C)=O)CC[C@H]2[C@@H]3C=C(C)C4=CC(=O)CC[C@]4(C)[C@H]3CC[C@@]21C [MEGESTROL ACETATE]", "Solute carrier organic anion transporter family member 1B3 (Homo sapiens)", "rule not met"],
  ["CC(C)CCC[C@@H](C)[C@H]1CC[C@H]2[C@@H]3CC[C@H]4CC(=O)CC[C@]4(C)[C@H]3CC[C@]12C", "Solute carrier organic anion transporter family member 1B3 (Homo sapiens)", "rule met"],
  ["Nc1ncnc2c1ncn2[C@H]1C[C@H](O)[C@@H](CO)O1", "Solute carrier organic anion transporter family member 1B3 (Homo sapiens)", "rule not met"],
  ["Cc1cc2cc3c(C)cc(=O)oc3c(C)c2o1", "Solute carrier organic anion transporter family member 1B3 (Homo sapiens)", "rule met"],
  ["CC(=O)O[C@]1(C(C)=O)CC[C@H]2[C@@H]3C=C(Cl)C4=CC(=O)[C@@H]5C[C@@H]5[C@]4(C)[C@H]3CC[C@@]21C [CYPROTERONE ACETATE]", "Solute carrier organic anion transporter family member 1B3 (Homo sapiens)", "rule not met"],
  ["CC(=O)Nc1ccccc1 [ACETANILIDE]", "Solute carrier organic anion transporter family member 1B3 (Homo sapiens)", "rule not met"],
  ["CCOC(=O)c1c(C)cc(O)c(C)c1O", "Solute carrier organic anion transporter family member 1B3 (Homo sapiens)", "rule not met"],
  ["CC(CCc1ccccc1)NCC(O)c1ccc(O)c(C(N)=O)c1.Cl (stereo not drawn) [LABETALOL HYDROCHLORIDE]", "Solute carrier organic anion transporter family member 1B3 (Homo sapiens)", "rule not met"],
  ["Cl.NC(CO)C(=O)NNCc1ccc(O)c(O)c1O (stereo not drawn) [BENSERAZIDE HYDROCHLORIDE]", "Solute carrier organic anion transporter family member 1B3 (Homo sapiens)", "rule not met"],
  ["C[C@@](Cc1ccc(O)c(O)c1)(NN)C(=O)O.O", "Solute carrier organic anion transporter family member 1B3 (Homo sapiens)", "rule not met"],
  ["CCCOc1ccc2nc(NC(=O)OC)[nH]c2c1", "Solute carrier organic anion transporter family member 1B3 (Homo sapiens)", "rule not met"],
  ["C[N+](C)(C)CC(=O)O.[Cl-] [BETAINE HYDROCHLORIDE]", "Solute carrier organic anion transporter family member 1B3 (Homo sapiens)", "rule not met"]
]}
